As shown below, each of these molecules has a reported S4 bud formation per root value.
- System: Orobanche minor
- protocol_details: Test Example 3: foliage application treatment, parasitism of Orobanche minor on red clover
- Type: in vivo
- condition_description: foliage application, 20 ppm; untreated plot 0.52
Numeric answer only, unit per root assumed.

What S4 bud formation per root appears in the records for this molecule with Orobanche minor? C=CCOC1=NS(=O)(=O)c2ccccc21
0.16

Check Cc1ccc(NC(=O)c2snnc2C)cc1Cl too.
0.15

Check O=C(O)c1ccnc(Cl)c1 too.
0.03

Check O=C(O)c1ccccc1O too.
0.38

----------
- System: Orobanche minor
- protocol_details: Test Example 2: soil irrigation treatment, parasitism of Orobanche minor on red clover
- Type: in vivo
- condition_description: soil irrigation, 2 ppm; untreated plot 0.52
As shown below, each of these compounds has a reported S4 bud formation per root value.
Numeric answer only, unit per root assumed.

See these solved cases before continuing.
>>> readout_value("C=CCOC1=NS(=O)(=O)c2ccccc21")
0.13
>>> readout_value("O=C(O)c1ccccc1O")
0.06
>>> readout_value("Cc1ccc(NC(=O)c2snnc2C)cc1Cl")
0.17

Now consider the entry below.
Please give the measured S4 bud formation per root for this compound: O=C(O)c1ccnc(Cl)c1
0.07

----------
- Tested on: Orobanche minor
- protocol_details: Test Example 2: soil irrigation treatment, parasitism of Orobanche minor on red clover
- Assay type: in vivo
- condition_description: soil irrigation 20 ml/pot at 10, 20 and 30 days after sowing, 20 ppm; untreated plot 2.55
As shown below, each of these compounds has a reported Average parasitism frequency per root value.
Numeric answer only, unit per root assumed.

See these solved cases before continuing.
>>> readout_value("C=CCOC1=NS(=O)(=O)c2ccccc21")
3.17
>>> readout_value("Cc1ccc(NC(=O)c2snnc2C)cc1Cl")
1.71
>>> readout_value("O=C(O)c1ccccc1O")
2.47

Now consider the entry below.
Please give the measured Average parasitism frequency per root for this compound: O=C(O)c1ccnc(Cl)c1
1.03

----------
- System: Orobanche minor
- protocol_details: Test Example 2: soil irrigation treatment, parasitism of Orobanche minor on red clover
- Assay type: in vivo
- condition_description: soil irrigation, 20 ppm; untreated plot 0.52
As shown below, each of these compounds has a reported S4 bud formation per root value.
Numeric answer only, unit per root assumed.

See these solved cases before continuing.
>>> readout_value("O=C(O)c1ccnc(Cl)c1 [INA, 2-chloroisonicotinic acid]")
0.08
>>> readout_value("Cc1ccc(NC(=O)c2snnc2C)cc1Cl [TDN, tiadinil]")
0.10
>>> readout_value("O=C(O)c1ccccc1O [SA, salicylic acid]")
0.03

Please give the measured S4 bud formation per root for this compound: C=CCOC1=NS(=O)(=O)c2ccccc21 [PBZ, probenazole]
0.08
